Measured values drawn from patent US20140235587A1 for this set.

# pEC50 annotations
- TARGET_UNDER_TEST: human S1P1 receptor (Homo sapiens)
- Construct: membranes used
- Sequence (P21453 whole entry): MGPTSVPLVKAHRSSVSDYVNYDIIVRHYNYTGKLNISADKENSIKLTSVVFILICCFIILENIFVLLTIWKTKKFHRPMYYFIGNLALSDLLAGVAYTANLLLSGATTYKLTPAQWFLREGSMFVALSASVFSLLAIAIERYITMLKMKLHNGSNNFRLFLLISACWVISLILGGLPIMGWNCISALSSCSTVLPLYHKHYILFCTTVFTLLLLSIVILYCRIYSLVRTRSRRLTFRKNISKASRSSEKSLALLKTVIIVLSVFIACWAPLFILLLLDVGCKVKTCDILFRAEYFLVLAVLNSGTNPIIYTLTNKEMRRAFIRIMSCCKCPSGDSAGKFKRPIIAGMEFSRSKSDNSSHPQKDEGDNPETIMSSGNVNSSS
- TEST_NAME: GTP γ35S binding assay for S1P1 activity
- COND: membranes of cells stably expressing S1P1; test compounds 0.08 to 5,000 nM; 30 min at 25° C.; read-out: S1P1 EC50 (Activity potency: S1P1 receptor from GTP γ35S)
Please note pEC50 is a logarithmic value: minus log10 of concentration in mol/L. Answer with that number alone.

Give the value of pEC50 reported for the following: CCCN1N=C(c2nc(-c3ccc(CNCCCP(=O)(O)O)cc3)no2)CC1c1ccccc1 (centres unmarked)
7.74

New cases:
Input CCN1N=C(c2nc(-c3ccc(CNCCC(=O)O)cc3F)no2)CC1c1ccccc1 (centres unmarked) , output reported pEC50.
7.31

For CN1N=C(c2nc(-c3ccc(CNCCCP(=O)(O)O)cc3)no2)CC1c1ccccc1 (centres unmarked) , write its pEC50.
8.19

Give recorded pEC50. CCN1N=C(c2nc(-c3ccc(CNCCCP(=O)(O)O)cc3)no2)CC1c1ccccc1 (centres unmarked)
7.60

Return reported pEC50. Input compound: CCN1N=C(c2nc(-c3cc(F)c(CNCCCP(=O)(O)O)c(F)c3)no2)CC1c1ccccc1 (centres unmarked)
8.27

Determine its reported pEC50: CCN1N=C(c2nc(-c3ccc(CNCCC(=O)O)cc3)no2)CC1c1ccccc1 (centres unmarked)
6.56

Determine from records and report pEC50 for CCN1N=C(c2nc(-c3ccc(CNCCCP(=O)(O)O)cc3F)no2)CC1c1ccccc1 (centres unmarked)
7.96

Kindly indicate its recorded pEC50. Item: CCc1cc(-c2noc(C3=NN(CC)C(c4ccccc4)C3)n2)ccc1CNCCC(=O)O (centres unmarked)
7.68

----------
- TARGET_UNDER_TEST: human S1P1 receptor (Homo sapiens)
- Construct: membranes used
- TEST_NAME: GTP γ35S binding assay for S1P1 activity
- COND: membranes of cells stably expressing S1P1; test compounds 0.08 to 5,000 nM; 30 min at 25° C.; read-out: S1P1 EC50 (Activity potency: S1P1 receptor from GTP γ35S)
REPORTED_PROPERTY: EC50
Hey, just the number and the unit after it is fine.

Find the measured EC50 of CCN1N=C(c2nc(-c3cc(F)c(CNCCC(=O)O)c(F)c3)no2)CC1c1ccccc1 (stereo not drawn) and report it.
42 nM

Give EC50 for CCc1cc(-c2noc(C3=NN(CC)C(c4ccccc4)C3)n2)ccc1CNCCCP(=O)(O)O (stereo not drawn)
2.6 nM

***
For the molecule CCCN1N=C(c2nc(-c3ccc(CNCCC(=O)O)cc3)no2)CC1c1ccccc1 (stereo not drawn) , report EC50.
65 nM
